Tested on: GHOST CCR5 cells
Conditions: GHOST CCR5 cells; XTT; triplicate
attribute-measured: Cytotoxicity TC50

The compound listed as CNC(=O)COCC(=O)NCCCNC(=O)COCC(=O)N[C@@H]1CC[C@@]2(O)[C@H]3Cc4ccc(O)c5c4[C@@]2(CCN3CC2CC2)[C@H]1O5 [VZMC002] shows Cytotoxicity TC50 equal to >100 µM

Reported Cytotoxicity TC50 of Cc1nnc(C(C)C)n1C1C[C@H]2CC[C@@H](C1)N2CC[C@H](NC(=O)C1CCC(F)(F)CC1)c1ccccc1 (stereo in doubt) [Maraviroc] : >0.5 µM

For reference, reported Cytotoxicity TC50 for Cc1nnc(C(C)C)n1C1CC2CCC(C1)N2CC[C@H](NC(=O)C1CCC(F)(F)CC1)c1ccc(NC(=O)COCC(=O)NCCCCCCCNC(=O)COCC(=O)N[C@@H]2CC[C@@]3(O)[C@H]4Cc5ccc(O)c6c5[C@@]3(CCN4CC3CC3)[C@H]2O6)cc1 (stereo partly shown) [VZMC001] stands at >100 µM

compound CC(C)c1nnc(CCNC(=O)COCC(=O)NCCCCCCCNC(=O)COCC(=O)NC2CC[C@@]3(O)[C@H]4Cc5ccc(O)c6c5[C@@]3(CCN4CC3CC3)[C@H]2O6)n1C1CC2CCC(C1)N2CC[C@H](NC(=O)C1CCC(F)(F)CC1)c1ccccc1 (stereo partly shown) [VZMC013] , Cytotoxicity TC50 observed: >100 µM

The measured values listed here are drawn from patent US20240208984A1.
